These entries and their values trace back to ChEMBL document CHEMBL4359892.

system: Human immunodeficiency virus 1; experiment: Antiviral activity against HIV-1 3B infected in human MT4 cells assessed as reduction in virus-induced cytopathic effect incubated for 5 days by MTT assay; format: functional, organism-based; conditions: Human immunodeficiency virus 1, 3B, MT4, 120 h
// pEC50 lookup, one value per entry
Note on units: pEC50 is unitless, being -log10 of a concentration expressed in mol/L.

Previously resolved entries follow.
{"compound.smiles": "Cc1cc(C)cc(S(=O)(=O)c2c(C(=O)NC3CN(Cc4ccccc4C#N)C3)[nH]c3ccc(Cl)cc23)c1", "pEC50": 7.89}
{"compound.smiles": "Cc1cn([C@H]2C[C@H](N=[N+]=[N-])[C@@H](CO)O2)c(=O)[nH]c1=O", "pEC50": 8.00}
{"compound.smiles": "Cc1cc(C)cc(S(=O)(=O)c2c(C(=O)N[C@H]3CCN(Cc4cccnc4)C3)[nH]c3ccc(Cl)cc23)c1", "pEC50": 7.96}
{"compound.smiles": "Cc1cc(C)cc(S(=O)(=O)c2c(C(=O)NC3CN(S(C)(=O)=O)C3)[nH]c3ccc(Cl)cc23)c1", "pEC50": 7.77}

In: What value of measured pEC50 is listed for "Cc1cc(C)cc(S(=O)(=O)c2c(C(=O)NCCP(=O)(O)O)[nH]c3ccc(Cl)cc23)c1" ?
Out: 6.68

----------
assay: Cytotoxicity against human MT4 cells assessed as reduction in cell viability incubated for 5 days by MTT assay; assay type: cell-based
assay.endpoint: CC50 at 120 h

Past entries and their recorded results:
{"compound.smiles": "Cc1cc(C#N)cc(C)c1Oc1nc(Nc2ccc(C#N)cc2)nc(N)c1Br", "CC50 at 120 h": "> 4.61 µM"}
{"compound.smiles": "Cc1cc(C)cc(S(=O)(=O)c2c(C(=O)NC3CN(Cc4ccccc4F)C3)[nH]c3ccc(Cl)cc23)c1", "CC50 at 120 h": "> 238 µM"}
{"compound.smiles": "Cc1cc(C)cc(S(=O)(=O)c2c(C(=O)N[C@@H]3CCN(Cc4ccccc4C#N)C3)[nH]c3ccc(Cl)cc23)c1", "CC50 at 120 h": "≥ 186 µM"}
{"compound.smiles": "O=C1Nc2ccc(Cl)cc2[C@@](C#CC2CC2)(C(F)(F)F)O1", "CC50 at 120 h": "> 6.35 µM"}
{"compound.smiles": "Cc1cn([C@H]2C[C@H](N=[N+]=[N-])[C@@H](CO)O2)c(=O)[nH]c1=O", "CC50 at 120 h": "> 7.49 µM"}
{"compound.smiles": "Nc1ccn([C@@H]2CS[C@H](CO)O2)c(=O)n1", "CC50 at 120 h": "> 87.2 µM"}

In: Record request: CC50 at 120 h value, item "Cc1cc(C)cc(S(=O)(=O)c2c(C(=O)NCCn3ccc(=O)[nH]c3=O)[nH]c3ccc(Cl)cc23)c1"
Out: > 265 µM

----------
system: Human immunodeficiency virus 1; assay: Antiviral activity against HIV-1 3B infected in human MT4 cells assessed as reduction in virus-induced cytopathic effect incubated for 5 days by MTT assay; type: functional, organism-based; conditions: Human immunodeficiency virus 1, 3B, MT4, 120 h
Reported values of EC50 for individual entries
Please answer using a numeric value trailed by its unit.

In: State the recorded EC50 for this entry: "Cc1cc(C)cc(S(=O)(=O)c2c(C(=O)N[C@H]3CCN(CC(N)=O)C3)[nH]c3ccc(Cl)cc23)c1"
Out: 0.0098 µM

In: Ok, now "Cc1cc(C)cc(S(=O)(=O)c2c(C(=O)NC3CN(Cc4cccnc4)C3)[nH]c3ccc(Cl)cc23)c1"
Out: 0.015 µM

In: Then "Cc1cc(C)cc(S(=O)(=O)c2c(C(=O)NCCn3ccc(=O)[nH]c3=O)[nH]c3ccc(Cl)cc23)c1" ?
Out: 4.42 µM

In: Now the compound "Cc1cc(C)cc(S(=O)(=O)c2c(C(=O)N[C@@H]3CCN(CC(N)=O)C3)[nH]c3ccc(Cl)cc23)c1"
Out: 0.0098 µM

In: Do the same for "Cc1cc(C)cc(S(=O)(=O)c2c(C(=O)N[C@H]3CCN(S(C)(=O)=O)C3)[nH]c3ccc(Cl)cc23)c1" please
Out: 0.0043 µM

In: # iterate: "Cc1cc(C)cc(S(=O)(=O)c2c(C(N)=O)[nH]c3ccc(Cl)cc23)c1"
Out: 0.0041 µM
